measured on: SBT189
study conditions: read-out: apparent KD for azide; anion binding to the enzyme-substrate complex
outcome measure: pKd
Answers are plain numbers, as −log10 of the molar value.

Would you kindly share the measured pKd for [N-]=[N+]=[N-] [azide] ?
1.30
